- assay_system: human TSHR (Homo sapiens, UniProt P16473)
- Sequence (P16473 21-764): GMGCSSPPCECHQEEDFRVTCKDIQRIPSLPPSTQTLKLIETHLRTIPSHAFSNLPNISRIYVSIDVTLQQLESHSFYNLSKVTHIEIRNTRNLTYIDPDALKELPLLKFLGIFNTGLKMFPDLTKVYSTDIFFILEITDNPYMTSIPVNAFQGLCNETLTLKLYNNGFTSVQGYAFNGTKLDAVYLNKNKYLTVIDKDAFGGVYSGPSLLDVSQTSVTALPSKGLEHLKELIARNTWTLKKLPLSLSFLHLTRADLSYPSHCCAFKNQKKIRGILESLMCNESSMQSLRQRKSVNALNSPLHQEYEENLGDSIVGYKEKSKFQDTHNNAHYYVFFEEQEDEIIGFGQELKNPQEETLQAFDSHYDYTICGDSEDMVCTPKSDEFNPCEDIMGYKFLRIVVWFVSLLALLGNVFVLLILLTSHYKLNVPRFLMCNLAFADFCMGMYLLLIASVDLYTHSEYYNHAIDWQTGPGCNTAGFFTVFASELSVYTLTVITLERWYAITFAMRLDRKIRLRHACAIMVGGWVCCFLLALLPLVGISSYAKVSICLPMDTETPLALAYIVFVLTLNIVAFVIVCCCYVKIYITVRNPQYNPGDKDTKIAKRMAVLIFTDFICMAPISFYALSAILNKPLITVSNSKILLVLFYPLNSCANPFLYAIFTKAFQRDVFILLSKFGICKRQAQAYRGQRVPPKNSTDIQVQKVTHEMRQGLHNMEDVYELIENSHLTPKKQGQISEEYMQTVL
- test_method_notes: Antagonist activity using TSH-induced cAMP production in human TSHR-stably expressing CHO cells
- measurement_setup: human TSH final concentration of 50 ng/mL, cAMP production rate
pIC50: −log10 of the molar value.
Measured pIC50 by item

CN1C(=O)[C@H](NC(N)=O)Cc2sc(CO)c(Cc3cc(F)ccc3Cl)c21 = > 5.52
C=C(c1ccccc1Cl)c1cccc2c1N(C)C(=O)[C@H](NC(N)=O)C2 = > 5.52
CN1C(=O)C(CNC(N)=O)Cc2cccc(Oc3ccccc3)c21 (stereo not drawn) = 4.52 to 5.52

Data request, read-out pIC50, for CC1(c2ccccc2)CC(C)(C)N2C(=O)[C@H](NC(N)=O)Cc3cccc1c32 (stereo partly drawn)
> 5.52

What does the record list as pIC50 for `CN1C(=O)[C@H](N2CCNC2=O)Cc2cccc(Oc3cc(F)ccc3Cl)c21` ?
4.52 to 5.52

State the recorded pIC50 for this entry: `CN1C(=O)[C@H](NC(N)=O)Cc2cccc(OCc3ccccc3)c21`
< 4.52

// returns reported pIC50 for input CN1C(=O)C(NC(N)=O)Cc2cc(NC(=O)OC3(C)CC3)cc(Oc3cccc(C(F)(F)F)n3)c21 (stereo not drawn)
> 5.52

Bench note: what pIC50 did `CN1C(=O)[C@H](NC(N)=O)Cc2cccc(C(=O)c3ccccc3Cl)c21` show?
> 5.52

I have this molecule here, `Cc1ccc2c(c1Oc1cc(F)ccc1Cl)N(C)C(=O)[C@H](NC(=O)c1ccccc1)C2` , and I need its recorded pIC50.
> 5.52
